# System: human PKK mRNA
# Procedure Text: Antisense inhibition of human PKK mRNA in HepaRG cells, 1,000 nM, MOE/deoxy/cEt oligonucleotides (Example 3)
# Format: cell-based
# Experimental Setup: PKK mRNA, HepaRG cells, 1,000 nM antisense oligonucleotide; Table 31
Strand notation (5' to 3'): a small letter for the sugar, then the base; units joined by * are phosphorothioate-linked, units joined directly phosphodiester-linked; [ ] holds rarer units or linkages, { } end groups; capitals alone tell only the bases. e = 2'-O-(2-methoxyethyl) (MOE); k = constrained ethyl (cEt); [5mC] = 5-methylcytosine; d = 2'-deoxy (DNA)
% inhibition: recorded values

Substance: 548625 (antisense eG*eT*kT*d[5mC]*dT*dA*d[5mC]*dA*d[5mC]*dA*d[5mC]*dA*dG*kT*kA*e[5mC]) [compound 548625]
% inhibition: 0%
--
Substance: 548652 (antisense e[5mC]*e[5mC]*kA*d[5mC]*dG*dA*dT*dG*d[5mC]*dT*d[5mC]*dT*dG*kG*k[5mC]*e[5mC]) [compound 548652]
% inhibition: 65%
--
Substance: 548650 (antisense e[5mC]*eT*kG*dA*dT*d[5mC]*d[5mC]*d[5mC]*dA*d[5mC]*dT*dT*dG*k[5mC]*k[5mC]*e[5mC]) [compound 548650]
% inhibition: 21%

# credit: patent US11840686B2
